experiment: Intrinsic clearance in human liver microsomes; type: ADME; settings: read-out: CLH

[
  {
    "Sample smiles": "CNc1nc(Cc2ccccc2)nc2c1CCNC[C@@H]2C",
    "Endpoint unit": "µL/min/mg",
    "microsomal CLint": 16
  }
]

From: ChEMBL document CHEMBL3286089
